System: NCI-H1618 multicellular tumor spheroid viability
PROTOCOL SUMMARY: Anticancer human tumor NCI-H1618 cell line growth inhibition;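 note: spheroids exposed to agents for 7 days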
RECORDED CONDITIONS: second compound 0.0003 µM; first compound 0.1 µM; stronger effect = lower value
PROPERTY LABEL: viability, T/C (%)
Answer format: numeric, % implied, no suffix.

Record request: viability, T/C value, item [2H]c1nc(C)nc([2H])c1-c1cc(NC[C@@H](C)c2cccc3c(C(=O)NC)ccnc23)ncn1 + COc1cc2c(cc1O)CCNC21CSC2c3c(OC(C)=O)c(C)c4c(c3C(COC1=O)N1C(O)C3Cc5cc(C)c(OC)c(O)c5C(C21)N3C)OCO4
2.89

Then this compound: COc1cc(C)[nH]c(=O)c1CN1CCc2c(Cl)cc(C(OC)C3COC3)c(Cl)c2C1=O (configuration not stated) + COc1cc2c(cc1O)CCNC21CSC2c3c(OC(C)=O)c(C)c4c(c3C(COC1=O)N1C(O)C3Cc5cc(C)c(OC)c(O)c5C(C21)N3C)OCO4
19.3

====

Test system: NCI-H1618 multicellular tumor spheroid viability
PROTOCOL SUMMARY: Anticancer human tumor NCI-H1618 cell line growth inhibition;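 note: spheroids exposed to agents for 7 days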
RECORDED CONDITIONS: curve of first compound; second compound 0.03 µM
PROPERTY LABEL: IC50

Requested field: IC50. Item: [2H]c1nc(C)nc([2H])c1-c1cc(NC[C@@H](C)c2cccc3c(C(=O)NC)ccnc23)ncn1 + CC[C@@]1(O)C(=O)OCc2c1cc1n(c2=O)Cc2cc3c(CN(C)C)c(O)ccc3nc2-1
< 31.6 nM

Continuing:
Bench note: what IC50 did Cc1cc(C)c(CNC(=O)c2cc(-c3ccc(CN4CCOCC4)cc3)cc3c2cnn3C2CCCC2)c(=O)[nH]1 + CC[C@@]1(O)C(=O)OCc2c1cc1n(c2=O)Cc2cc3c(CN(C)C)c(O)ccc3nc2-1 show?
< 31.6 nM

And CNCc1ccc(-c2cc(-c3nc(-c4ccc(S(=O)(=O)C(C)C)cc4)cnc3N)on2)cc1 + CC[C@@]1(O)C(=O)OCc2c1cc1n(c2=O)Cc2cc3c(CN(C)C)c(O)ccc3nc2-1 ?
< 9.49 nM

====

System: NCI-H1618 multicellular tumor spheroid viability
PROTOCOL SUMMARY: Anticancer human tumor NCI-H1618 cell line growth inhibition;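 note: spheroids exposed to agents for 7 days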
RECORDED CONDITIONS: curve of first compound; second compound 31.6 µM
// reported IC50 per item

Query IC50 on NCI-H1618 multicellular tumor spheroid viability for CC1COCCN1c1cc(-c2ccnn2C)c2ccnc(-c3ccn[nH]3)c2n1 (stereo not drawn) + Cn1nnc2c(C(N)=O)ncn2c1=O
< 31.6 nM

Same lookup for COc1ccc([C@@H](O)c2cc(-c3ncnc4cc(N5CCOCC5)ccc34)c(F)cc2Cl)nn1 + Cn1nnc2c(C(N)=O)ncn2c1=O , please.
< 31.6 nM

And then Cn1ncnc1[C@H]1c2n[nH]c(=O)c3cc(F)cc(c23)N[C@@H]1c1ccc(F)cc1 + Cn1nnc2c(C(N)=O)ncn2c1=O , what is it?
< 9.49 nM

====

Tested on: NCI-H1618 multicellular tumor spheroid viability
PROTOCOL SUMMARY: Anticancer human tumor NCI-H1618 cell line growth inhibition;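 note: spheroids exposed to agents for 7 days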
RECORDED CONDITIONS: second compound 3.16 µM; first compound 10 µM; stronger effect = lower value
PROPERTY LABEL: viability, T/C

Known viability, T/C results, listed for orientation:
API: value(readout=viability, T/C, system=NCI-H1618 multicellular tumor spheroid viability) for record [2H]c1nc(C)nc([2H])c1-c1cc(NC[C@@H](C)c2cccc3c(C(=O)NC)ccnc23)ncn1 + Cn1nnc2c(C(N)=O)ncn2c1=O
27.3%

Thanks! And Cc1cc(C)c(CNC(=O)c2cc(-c3ccc(CN4CCOCC4)cc3)cc3c2cnn3C2CCCC2)c(=O)[nH]1 + Cn1nnc2c(C(N)=O)ncn2c1=O ?
19.3%

Input COc1cc(C)[nH]c(=O)c1CN1CCc2c(Cl)cc(C(OC)C3COC3)c(Cl)c2C1=O (stereo unspecified) + Cn1nnc2c(C(N)=O)ncn2c1=O
15.4%

Cool, now CC(C)n1c(=O)n(C)c2cnc3cc(F)c(-c4ccc(OCCCN5CCCCC5)nc4)cc3c21 + Cn1nnc2c(C(N)=O)ncn2c1=O
14.4%

Quick one: CC1COCCN1c1cc(-c2ccnn2C)c2ccnc(-c3ccn[nH]3)c2n1 (stereo unspecified) + Cn1nnc2c(C(N)=O)ncn2c1=O
2.12%

Shift focus to the following entry.
viability, T/C of COc1ccc([C@@H](O)c2cc(-c3ncnc4cc(N5CCOCC5)ccc34)c(F)cc2Cl)nn1 + Cn1nnc2c(C(N)=O)ncn2c1=O on NCI-H1618 multicellular tumor spheroid viability?
6.14%
